Target: Ephrin type-B receptor 2 (Homo sapiens) (UniProt P29323)
Sequence (whole entry): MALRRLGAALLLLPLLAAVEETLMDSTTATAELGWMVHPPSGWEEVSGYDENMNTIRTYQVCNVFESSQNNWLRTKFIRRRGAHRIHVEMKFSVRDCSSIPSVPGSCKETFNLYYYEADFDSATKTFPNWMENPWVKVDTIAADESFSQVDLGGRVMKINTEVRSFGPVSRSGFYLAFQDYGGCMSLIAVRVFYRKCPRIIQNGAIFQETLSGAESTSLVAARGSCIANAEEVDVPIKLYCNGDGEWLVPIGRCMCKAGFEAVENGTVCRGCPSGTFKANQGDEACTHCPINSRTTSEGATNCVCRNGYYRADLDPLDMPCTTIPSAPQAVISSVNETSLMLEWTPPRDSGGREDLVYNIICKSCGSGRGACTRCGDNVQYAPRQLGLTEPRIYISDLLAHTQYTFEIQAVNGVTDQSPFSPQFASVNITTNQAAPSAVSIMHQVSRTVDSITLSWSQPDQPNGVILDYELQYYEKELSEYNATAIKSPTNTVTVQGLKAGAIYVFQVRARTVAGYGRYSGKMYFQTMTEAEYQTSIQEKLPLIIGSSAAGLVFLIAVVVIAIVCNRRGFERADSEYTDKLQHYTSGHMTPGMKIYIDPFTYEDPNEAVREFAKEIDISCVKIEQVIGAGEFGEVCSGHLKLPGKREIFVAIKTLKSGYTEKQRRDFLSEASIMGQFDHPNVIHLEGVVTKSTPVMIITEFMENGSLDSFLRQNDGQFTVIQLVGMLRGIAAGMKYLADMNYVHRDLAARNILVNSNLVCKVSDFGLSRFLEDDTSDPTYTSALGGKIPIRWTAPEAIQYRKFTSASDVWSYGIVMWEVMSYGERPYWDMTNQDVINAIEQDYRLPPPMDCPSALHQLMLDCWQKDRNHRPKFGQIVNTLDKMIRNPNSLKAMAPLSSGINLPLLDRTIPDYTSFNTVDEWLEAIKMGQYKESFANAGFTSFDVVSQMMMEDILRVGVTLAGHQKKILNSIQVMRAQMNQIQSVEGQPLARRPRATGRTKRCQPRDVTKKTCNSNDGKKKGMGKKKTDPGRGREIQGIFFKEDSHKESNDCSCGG
Settings: at 1 µM
Description: GSK_PKIS: EPHB2 mean inhibition at 1 uM [Nanosyn]
Would you please tag the item 1 (yes) when its inhibition is 9% or above, and 0 (no) when it is below?

INSERT INTO results (compound, qualitative_label) VALUES
  ('COc1cccc(-n2ncc3c(N/N=C/c4cccc(F)c4)ncnc32)c1', '0 (no)'),
  ('COc1cc2ncn(-c3cc(O[C@H](C)c4ccccc4Cl)c(C(N)=O)s3)c2cc1OC', '1 (yes)');

In: Is inhibition for Cc1nnc(-c2ccc(C)c(-c3ccc(C(=O)Nc4cccc(C#N)c4)cc3)c2)o1 at or above 9%?
Out: 0 (no)

In: Is inhibition for CCCN1CCC(Oc2cc(Nc3nc(Nc4cccc(F)c4C(N)=O)c4cc[nH]c4n3)c(OC)cc2Cl)CC1 at or above 9%?
Out: 1 (yes)

In: Is inhibition for CCc1cccc(NC(=O)Nc2ccc(Oc3ccc4nc(NC(=O)OC)[nH]c4c3)cc2)c1 at or above 9%?
Out: 1 (yes)

In: Is inhibition for O=C(Nc1n[nH]c2nc(-c3ccco3)c(Br)cc12)C1CC1 at or above 9%?
Out: 0 (no)

In: Is inhibition for CC1=C(C(=O)Nc2ccc3[nH]ncc3c2)C(c2ccc3ccccc3c2)CC(=O)N1 (centres undefined) at or above 9%?
Out: 0 (no)

In: Is inhibition for CCn1c(-c2nonc2N)nc2cncc(C(=O)N3CC[C@H](N)C3)c21 at or above 9%?
Out: 0 (no)

----------
molecular target: BDNF/NT-3 growth factors receptor (Homo sapiens) (UniProt Q16620); settings: at 1 µM;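 note: values are the mean percent inhibition of TRKB kinase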
Sequence (Q16620 32-822 limits assumed): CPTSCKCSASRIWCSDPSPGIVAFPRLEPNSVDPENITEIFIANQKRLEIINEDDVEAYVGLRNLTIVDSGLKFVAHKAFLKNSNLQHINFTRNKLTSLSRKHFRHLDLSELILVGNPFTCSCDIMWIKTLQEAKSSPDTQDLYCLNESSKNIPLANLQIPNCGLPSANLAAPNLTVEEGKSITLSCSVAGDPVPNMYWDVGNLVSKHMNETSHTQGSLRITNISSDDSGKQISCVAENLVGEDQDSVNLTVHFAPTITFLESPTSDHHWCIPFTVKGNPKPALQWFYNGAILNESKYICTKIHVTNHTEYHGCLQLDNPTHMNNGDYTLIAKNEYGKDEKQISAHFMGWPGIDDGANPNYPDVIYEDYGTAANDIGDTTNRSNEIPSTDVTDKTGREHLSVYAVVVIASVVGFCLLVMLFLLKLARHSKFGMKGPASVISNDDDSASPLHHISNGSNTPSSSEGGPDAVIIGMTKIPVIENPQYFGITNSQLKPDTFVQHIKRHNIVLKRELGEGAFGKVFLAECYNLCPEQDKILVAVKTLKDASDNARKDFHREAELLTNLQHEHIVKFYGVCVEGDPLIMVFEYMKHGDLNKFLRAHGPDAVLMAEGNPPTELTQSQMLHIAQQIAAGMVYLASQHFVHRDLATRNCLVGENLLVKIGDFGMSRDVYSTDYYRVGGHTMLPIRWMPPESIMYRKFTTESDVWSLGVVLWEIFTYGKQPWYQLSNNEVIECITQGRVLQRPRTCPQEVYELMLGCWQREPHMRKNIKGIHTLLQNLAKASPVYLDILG
endpoint.name: inhibition (%)
I only need the number, in %, no unit after it.

Worked cases, inhibition given:
INSERT INTO results (test_smiles, endpoint_name, unit_symbol, numeric_value) VALUES
  ('COc1ccc(-c2nn3ncccc3c2-c2ccnc(Nc3ccc(Cl)c(C(F)(F)F)c3)n2)cc1', 'inhibition', '%', 2.61),
  ('CCCN1CCC=C(c2ccc(Nc3nc(Nc4ccccc4C(N)=O)c4cc[nH]c4n3)c(C)c2)C1', 'inhibition', '%', 6.47),
  ('CCn1c(-c2nonc2N)nc2c(N3CCCC3)nccc21', 'inhibition', '%', 0.49),
  ('Cc1ccc(C(=O)NC2CCCCC2)cc1-c1ccc(C(=O)NCC2CC2)cc1', 'inhibition', '%', -0.15),
  ('Cc1cccc(-c2n[nH]cc2-c2ccc3ncccc3n2)n1', 'inhibition', '%', 0.79),
  ('COc1ccccc1Nc1ncc(-c2ccccc2)o1', 'inhibition', '%', 8.84),
  ('COc1cc2ncn(-c3cc(OCc4ccccc4Cl)c(C(N)=O)s3)c2cc1OC', 'inhibition', '%', 13.7),
  ('CNC(=O)c1cncc(/C=C/c2c(Cl)cccc2Cl)c1', 'inhibition', '%', 4.39),
  ('O=C1NC(=O)C(N2CCc3ccccc32)=C1c1ccc(Cl)cc1', 'inhibition', '%', 7),
  ('Cn1cc(C=C2C(=O)Nc3cccnc32)c2ccccc21', 'inhibition', '%', 75.5);

In: Value lookup for inhibition; key = CC(C)=Cc1cccc2c1/C(=N/Nc1ccc(S(N)(=O)=O)cc1)C(=O)N2
Out: 75.3

In: Value lookup for inhibition; key = CCn1c(-c2nonc2N)nc2cnc(Oc3cccc(NC(=O)c4ccc(OCCN5CCOCC5)cc4)c3)cc21
Out: 0.84

----------
biological target: Casein kinase I isoform gamma-2 (Homo sapiens) (UniProt P78368); conditions: at 1 µM
Sequence (P78368 whole entry, looked up, canonical isoform): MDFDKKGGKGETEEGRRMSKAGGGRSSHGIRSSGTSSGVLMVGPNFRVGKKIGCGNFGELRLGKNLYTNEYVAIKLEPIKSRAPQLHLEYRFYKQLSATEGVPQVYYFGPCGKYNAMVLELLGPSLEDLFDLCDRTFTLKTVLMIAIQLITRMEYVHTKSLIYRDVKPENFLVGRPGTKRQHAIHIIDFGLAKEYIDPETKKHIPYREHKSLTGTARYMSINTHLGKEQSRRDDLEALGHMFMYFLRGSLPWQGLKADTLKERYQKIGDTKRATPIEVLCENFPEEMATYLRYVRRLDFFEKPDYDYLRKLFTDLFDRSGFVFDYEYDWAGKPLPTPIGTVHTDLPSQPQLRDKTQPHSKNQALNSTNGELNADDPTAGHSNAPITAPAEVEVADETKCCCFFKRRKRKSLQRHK
Description: GSK_PKIS: CK1-g2 mean inhibition at 1 uM [Nanosyn]
endpoint.name: inhibition (%)
I only need the number, in %, no unit after it.

Worked cases, inhibition given:
INSERT INTO results (test_smiles, assayed_system, unit_symbol, numeric_value) VALUES
  ('O=C1NC(=O)C(c2ccc(Cl)cc2)=C1Nc1ccc(Cl)c(C(=O)O)c1', 'Casein kinase I isoform gamma-2 (Homo sapiens) (UniProt P78368)', '%', -1.57),
  ('NC(=O)c1ccc(-c2nc(-c3ccccn3)c(-c3ccc4c(c3)OCO4)[nH]2)cc1', 'Casein kinase I isoform gamma-2 (Homo sapiens) (UniProt P78368)', '%', 3.29),
  ('COc1ccc(-c2nn3ncccc3c2-c2ccnc(Nc3ccc(Cl)c(C(F)(F)F)c3)n2)cc1', 'Casein kinase I isoform gamma-2 (Homo sapiens) (UniProt P78368)', '%', 1.48);

In: Value lookup for inhibition; key = CCN1CCC(CC(=O)Nc2n[nH]c3nc(-c4cccs4)c(Br)cc23)CC1
Out: -0.99

In: Value lookup for inhibition; key = COc1cc(C)c(NC(=O)CN(C)C)cc1Nc1nc(Nc2cccc(F)c2C(N)=O)c2cc[nH]c2n1
Out: 20

In: Value lookup for inhibition; key = O=C(Nc1n[nH]c2nc(-c3ccco3)c(Br)cc12)C1CC1
Out: 2.51

----------
molecular target: Activated CDC42 kinase 1 (Homo sapiens) (UniProt Q07912); details: at 1 µM
Sequence (Q07912 whole entry, looked up): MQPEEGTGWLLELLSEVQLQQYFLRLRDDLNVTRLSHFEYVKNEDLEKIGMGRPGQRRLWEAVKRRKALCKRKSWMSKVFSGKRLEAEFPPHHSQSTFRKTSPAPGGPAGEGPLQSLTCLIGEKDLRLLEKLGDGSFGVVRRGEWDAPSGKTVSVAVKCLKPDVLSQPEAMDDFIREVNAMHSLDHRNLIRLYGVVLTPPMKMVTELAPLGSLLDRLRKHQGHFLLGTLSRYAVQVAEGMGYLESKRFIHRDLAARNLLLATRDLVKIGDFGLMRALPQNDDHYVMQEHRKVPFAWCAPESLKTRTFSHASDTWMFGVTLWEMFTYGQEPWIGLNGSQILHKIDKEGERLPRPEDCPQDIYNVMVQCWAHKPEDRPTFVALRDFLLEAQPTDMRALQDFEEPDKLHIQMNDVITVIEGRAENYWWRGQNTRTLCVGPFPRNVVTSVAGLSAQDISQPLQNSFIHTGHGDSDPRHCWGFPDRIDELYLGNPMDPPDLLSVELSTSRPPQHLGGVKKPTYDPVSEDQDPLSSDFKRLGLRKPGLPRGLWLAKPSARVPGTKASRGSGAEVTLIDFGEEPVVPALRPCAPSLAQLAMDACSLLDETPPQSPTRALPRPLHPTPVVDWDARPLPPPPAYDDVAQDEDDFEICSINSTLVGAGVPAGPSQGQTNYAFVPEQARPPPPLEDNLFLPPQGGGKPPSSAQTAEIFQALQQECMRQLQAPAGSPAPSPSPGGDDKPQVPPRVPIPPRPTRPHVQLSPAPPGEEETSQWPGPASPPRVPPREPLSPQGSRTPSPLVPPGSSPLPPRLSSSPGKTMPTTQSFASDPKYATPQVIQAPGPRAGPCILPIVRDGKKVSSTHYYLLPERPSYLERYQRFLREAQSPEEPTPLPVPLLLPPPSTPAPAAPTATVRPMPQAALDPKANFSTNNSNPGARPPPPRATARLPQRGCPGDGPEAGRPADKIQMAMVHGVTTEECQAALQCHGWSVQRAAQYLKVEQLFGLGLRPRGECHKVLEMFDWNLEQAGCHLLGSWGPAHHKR
Description: GSK_PKIS: TNK2 mean inhibition at 1 uM [Nanosyn]
endpoint.name: inhibition (%)
I only need the number, in %, no unit after it.

Worked cases, inhibition given:
INSERT INTO assay_data (test_smiles, endpoint_name, unit_symbol, numeric_value) VALUES
  ('COc1cc2ncn(-c3cc(OCc4ccccc4Cl)c(C(N)=O)s3)c2cc1OC', 'inhibition', '%', 7.05),
  ('Cc1cccc(-c2n[nH]cc2-c2ccc3ncccc3n2)n1', 'inhibition', '%', 0.91),
  ('Cc1cc(O)cc(C)c1/C=C/c1cncc(-c2nn[nH]n2)c1', 'inhibition', '%', 22),
  ('COC(=O)Nc1nc2cc(Oc3cccc(NC(=O)Nc4cc(C(F)(F)F)ccc4F)c3)ccc2[nH]1', 'inhibition', '%', -1.08),
  ('Nc1ncnc2occ(-c3ccc(NC(=O)Nc4cccc(C(F)(F)F)c4)cc3)c12', 'inhibition', '%', 1.54);

In: Value lookup for inhibition; key = COc1cc2ncn(-c3cc(O[C@H](C)c4ccccc4Cl)c(C(N)=O)s3)c2cc1OC
Out: 28.2

In: Value lookup for inhibition; key = CNC(=O)c1cncc(/C=C/c2c(Cl)cccc2Cl)c1
Out: 11

----------
Target: cAMP-dependent protein kinase catalytic subunit PRKX (Homo sapiens);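 note: each value is the mean percent inhibition of the kinase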
Sequence (whole entry): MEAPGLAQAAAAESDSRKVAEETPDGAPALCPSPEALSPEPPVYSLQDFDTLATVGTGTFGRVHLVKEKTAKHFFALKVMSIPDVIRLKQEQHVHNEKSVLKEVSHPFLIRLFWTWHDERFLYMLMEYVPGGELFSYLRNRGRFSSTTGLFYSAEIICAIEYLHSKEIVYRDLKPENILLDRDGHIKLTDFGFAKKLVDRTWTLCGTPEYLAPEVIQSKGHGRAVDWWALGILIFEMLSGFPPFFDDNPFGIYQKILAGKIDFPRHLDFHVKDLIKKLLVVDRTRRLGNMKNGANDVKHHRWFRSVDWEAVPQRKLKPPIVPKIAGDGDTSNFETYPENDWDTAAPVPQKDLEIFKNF
Settings: at 1 µM
Recorded inhibition for the following molecules
I only need the number, in %, no unit after it.

INSERT INTO assay_data (molecule, assayed_system, numeric_value) VALUES
  ('COc1cc(C)c(NC(=O)CN(C)C)cc1Nc1nc(Nc2cccc(F)c2C(N)=O)c2cc[nH]c2n1', 'cAMP-dependent protein kinase catalytic subunit PRKX (Homo sapiens)', -1.72);

In: Value lookup for inhibition; key = CCn1c(-c2nonc2N)nc2ccncc21
Out: -1.6

In: Value lookup for inhibition; key = CC1=C(C(=O)Nc2ccc3[nH]ncc3c2)C(c2ccc(Cl)c(Cl)c2)CC(=O)N1 (centres undefined)
Out: 59.2

In: Value lookup for inhibition; key = [O-][S+]1CCN(Cc2ccc(-c3ccc4ncnc(Nc5ccc(OCc6ccccc6)c(F)c5)c4c3)o2)CC1
Out: -1.73

In: Value lookup for inhibition; key = COc1cccc(-n2ncc3c(N/N=C/c4cccc(F)c4)ncnc32)c1
Out: 2.08

In: Value lookup for inhibition; key = NS(=O)(=O)c1ccc(N/N=C2\C(=O)Nc3ccc(C(=O)NCCc4c[nH]cn4)cc32)cc1
Out: 12.2

In: Value lookup for inhibition; key = CCn1c(-c2nonc2N)nc2c(C#CC(C)(C)O)nc(OC[C@@H](N)c3ccccc3)cc21
Out: 79.3

In: Value lookup for inhibition; key = CS(=O)(=O)CCN(CC#N)Cc1ccc(-c2ccc3ncnc(Nc4ccc(OCc5cccc(F)c5)c(Cl)c4)c3c2)o1
Out: 1.54

In: Value lookup for inhibition; key = COc1ccc(-c2nn3ncccc3c2-c2ccnc(Nc3ccc(Cl)c(C(F)(F)F)c3)n2)cc1
Out: 3.14
